test system: ALL-PO; test: selective drug sensitivity score (sDSS, relative to normal bone marrow) (sDSS (score)); higher = more potent and effective on the cell line relative to normal bone marrow cells; details: 72 h;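 note: ALL cell lines in 384-well plates, five doses spanning 10,000-fold, each plate scaled between vehicle and 100 µmol/L benzalkonium chloride controls, sDSS an adapted area-under-curve metric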
Would you mind telling me the reported selective drug sensitivity score of each entry?
No unit in the answer, please; the number alone is enough.

In: Item Cc1cccc(-c2nn3c(c2-c2ccnc4ccc(C(N)=O)cc24)CCC3)n1 [Galunisertib] (top concentration 1000 nM) has what recorded selective drug sensitivity score?
Out: 0

In: Dear colleague, I am looking for the recorded selective drug sensitivity score of the following molecule: Cc1nc(C(=O)NCC(=O)O)c(O)c2ccc(Oc3ccccc3)cc12 [Roxadustat] (top concentration 10000 nM)
Out: -0.82

In: # lookup: selective drug sensitivity score of COC[C@H](NC(=O)c1cnc(C)s1)C(=O)N[C@@H](COC)C(=O)N[C@@H](Cc1ccccc1)C(=O)[C@@]1(C)CO1 [Oprozomib] (top concentration 2500 nM)
Out: 0.8

In: // lookup selective drug sensitivity score for O=C(Nc1ccncc1)C(=O)c1cn(Cc2ccc(Cl)cc2)c2ccccc12 [Indibulin] (top concentration 10000 nM)
Out: 12.7

In: // selective drug sensitivity score lookup, key: CC(C)(C)C[C@@H]1N[C@@H](C(=O)N[C@H]2CC[C@H](O)CC2)[C@H](c2cccc(Cl)c2F)[C@]12C(=O)Nc1cc(Cl)ccc12 (top concentration 10000 nM)
Out: -1.84

In: Look at this molecule and give its reported selective drug sensitivity score. O=C(c1cc(Cc2n[nH]c(=O)c3ccccc23)ccc1F)N1CCN(C(=O)C2CC2)CC1 [Olaparib] (top concentration 10000 nM)
Out: -0.12

In: Quick one: selective drug sensitivity score for O=c1[nH]cc(F)c(=O)[nH]1 [Fluorouracil] (top concentration 10000 nM) ?
Out: 8.56

In: Give its selective drug sensitivity score value. Item: C=C(c1ccc(C(=O)O)cc1)c1cc2c(cc1C)C(C)(C)CCC2(C)C [Bexarotene] (top concentration 10000 nM)
Out: 3.7

In: Fill in the blank: the reported selective drug sensitivity score of CN1CC[C@H](c2c(O)cc(O)c3c(=O)cc(-c4ccccc4Cl)oc23)[C@H](O)C1 [Alvocidib] (top concentration 10000 nM) is ____.
Out: -6.7

In: Entry CCc1cc2c(cc1N1CCC(N3CCOCC3)CC1)C(C)(C)c1[nH]c3cc(C#N)ccc3c1C2=O [Alectinib] (top concentration 1000 nM) has what selective drug sensitivity score?
Out: 7.28

In: Item under review: C=CC(=O)N1CCC[C@@H](n2nc(-c3ccc(Oc4ccccc4)cc3)c3c(N)ncnc32)C1 [Ibrutinib] (top concentration 1000 nM) . Reported selective drug sensitivity score?
Out: 1.8

In: Value lookup for selective drug sensitivity score; key = Cc1ncc(-c2ccnc(Nc3ccc(S(C)(=O)=O)cc3)n2)n1C(C)C [AZD-5438] (top concentration 10000 nM)
Out: -6.06

In: I'd like to know its selective drug sensitivity score. The molecule in question is CN(CC(=O)N(Cc1ccc(C2CCCCC2)cc1)c1ccc(C(=O)O)cc1)S(=O)(=O)c1c(F)c(F)c(F)c(F)c1F [SH-4-54] (top concentration 25000 nM)
Out: -6.04
